Reference source: patent US20130287781A1

This section presents binders with their documented Kd values.
target: T1, GST-human NOGO-A56 (human); test: SPR (Biacore), GST-human NOGO-A56 amine-coupled to CM5, antibody flowed over, 25 C
T1 construct: Expressed in E. coli BL21 from pGEX-6P1 and purified on glutathione-sepharose; the GST tag is part of the protein in the assays; also called GST-Nogo-A 5+6; GST Nogo-A 5 + 6
T1 sequence (chain, as listed by the source limits assumed): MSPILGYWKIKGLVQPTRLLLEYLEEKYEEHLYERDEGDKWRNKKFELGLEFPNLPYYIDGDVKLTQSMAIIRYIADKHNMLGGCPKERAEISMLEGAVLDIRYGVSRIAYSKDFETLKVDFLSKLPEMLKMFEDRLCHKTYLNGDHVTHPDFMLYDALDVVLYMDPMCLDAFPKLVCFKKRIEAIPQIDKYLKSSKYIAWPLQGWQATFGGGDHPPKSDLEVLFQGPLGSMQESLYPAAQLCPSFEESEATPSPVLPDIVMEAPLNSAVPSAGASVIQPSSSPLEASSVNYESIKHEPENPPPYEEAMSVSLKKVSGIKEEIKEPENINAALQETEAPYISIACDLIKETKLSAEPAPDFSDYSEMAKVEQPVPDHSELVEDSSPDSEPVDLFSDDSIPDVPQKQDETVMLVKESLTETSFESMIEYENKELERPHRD
Report as a plain number; the unit nM is understood.

# Binder, Measured value
rows = [
    ("H20L16 (antibody, human IgG1, kappa, V domains shown, IgG1 (L235A, G237A) / kappa; CAMPATH-1H signal (1-19) left out) VH: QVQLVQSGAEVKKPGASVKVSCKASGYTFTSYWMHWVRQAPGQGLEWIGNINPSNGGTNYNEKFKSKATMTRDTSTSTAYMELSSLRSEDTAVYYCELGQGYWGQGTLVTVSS VL: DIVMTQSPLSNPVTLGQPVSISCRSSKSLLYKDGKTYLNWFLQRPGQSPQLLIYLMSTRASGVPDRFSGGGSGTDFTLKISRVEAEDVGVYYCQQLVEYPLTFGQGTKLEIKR", 1.16),
]

Continue with the next binder.
State the recorded Kd for this entry: H28L13 (antibody, human IgG1, kappa, V domains shown, IgG1 (L235A, G237A) / kappa; CAMPATH-1H signal (1-19) left out; also called H28FL L13FL) VH: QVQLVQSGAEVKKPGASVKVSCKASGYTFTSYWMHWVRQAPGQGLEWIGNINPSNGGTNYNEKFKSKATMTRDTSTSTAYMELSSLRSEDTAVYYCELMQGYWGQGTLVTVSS VL: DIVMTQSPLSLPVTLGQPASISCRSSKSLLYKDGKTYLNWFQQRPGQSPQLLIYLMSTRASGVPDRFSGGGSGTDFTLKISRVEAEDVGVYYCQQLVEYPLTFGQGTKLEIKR
0.936
